System: HCC 2998
Assay Summary: NCI tumour cell line growth inhibition, 48 h
Activity calls are given as the source filed them. Cut-off read from the data, not from the text of the source: active = GI50 up to about 1.1 µM and inactive = higher.
Outcomes you can answer with include only these: active, inactive

{"columns": ["Molecule", "Label Class"],
 "data": [
  ["CSc1ncnc2c1ncn2C1CC(Oc2ccc(C)cc2)C(COc2ccc(C)cc2)O1 (stereo unspecified)", "inactive"],
  ["CCOC(=O)C(c1c[nH]c2ccccc12)(c1c[nH]c2ccccc12)c1c[nH]c2ccccc12", "inactive"],
  ["Nc1nc2c(c(-c3ccccc3Cl)n1)COC/C2=C\\c1ccccc1Cl", "inactive"]
]}

For O=C(CC1(O)C(=O)Nc2c(Cl)cc(Cl)cc21)c1cccc([N+](=O)[O-])c1 (stereo unspecified) , which call appears in the assay record?
inactive

For O=C1CC(c2cccc(Cl)c2)Nc2ccc(N3CCCC3)cc21 (stereo unspecified) , which call appears in the assay record?
active

For `COc1ccccc1/C=C/C(=O)c1sc(-c2cccnc2)nc1C` , which call appears in the assay record?
inactive

For `O=C1NC(=O)C(=O)C(c2nc3ccccc3s2)C1=O` , which call appears in the assay record?
inactive

For CCC(CCCN)Nc1cc(OC)cc2cccnc12 (stereo unspecified) , which call appears in the assay record?
inactive

For `COCNC(=NC#N)NCOC` , which call appears in the assay record?
inactive

For `Nc1nc2c(c(-c3ccc(F)cc3)n1)COC/C2=C\c1ccc(F)cc1` , which call appears in the assay record?
inactive

For COc1ccc(P2(=S)Oc3ccc(C(c4ccccc4)(c4ccccc4)c4ccccc4)cc3O2)cc1 (stereo unspecified) , which call appears in the assay record?
inactive
